Target: human norepinephrine transporter (Homo sapiens, UniProt P23975)
Sequence (P23975 whole entry): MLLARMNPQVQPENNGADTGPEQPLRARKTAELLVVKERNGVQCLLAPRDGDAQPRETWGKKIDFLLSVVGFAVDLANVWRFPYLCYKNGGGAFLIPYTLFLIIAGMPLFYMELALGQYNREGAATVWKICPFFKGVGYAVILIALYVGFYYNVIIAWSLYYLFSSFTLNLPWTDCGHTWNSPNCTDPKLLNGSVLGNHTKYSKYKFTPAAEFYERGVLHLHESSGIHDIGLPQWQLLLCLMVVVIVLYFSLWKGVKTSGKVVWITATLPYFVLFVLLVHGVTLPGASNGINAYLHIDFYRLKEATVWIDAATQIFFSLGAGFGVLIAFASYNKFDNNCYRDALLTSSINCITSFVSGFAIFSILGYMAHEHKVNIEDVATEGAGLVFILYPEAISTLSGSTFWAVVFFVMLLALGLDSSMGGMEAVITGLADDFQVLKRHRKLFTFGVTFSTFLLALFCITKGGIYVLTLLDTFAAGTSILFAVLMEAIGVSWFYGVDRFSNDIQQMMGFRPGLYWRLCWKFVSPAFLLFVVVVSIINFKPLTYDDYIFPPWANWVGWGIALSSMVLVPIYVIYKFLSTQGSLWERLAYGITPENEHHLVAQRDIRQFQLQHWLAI
Structures can show the parent of a compound that is named as a salt.
Experimental endpoint: Ki (nM)

Molecule	Ki, nM
Cc1ccc(OC[C@H]2CCCNC2)c(Oc2c(F)cc(Cl)cc2F)n1 [Example 45, hydrochloride]	8.4

[P] Cl.c1ccc(Oc2ccccc2OC[C@H]2CCCNC2)cc1 [Example 43, hydrochloride]
[Q] CC[C@H](Oc1cccnc1OCC(C)C)[C@H]1CCCNC1
[R] Cc1ccc(OC[C@H]2CCCNC2)c(Oc2c(C)cccc2C)n1
[S] Fc1cc(Oc2ncccc2OC[C@H]2CCCNC2)ccc1Cl.O=C(O)/C=C/C(=O)O
Query: Sort low-to-high on Ki, please. Returns: the labels arranged in the requested order.
Result: P, S, Q, R
(P: 0.7 nM, S: 4 nM, Q: 7 nM, R: 17 nM)

====

Assay read-out Ki; system under study: human serotonin transporter (Homo sapiens, UniProt P31645).
Sequence (P31645 whole entry): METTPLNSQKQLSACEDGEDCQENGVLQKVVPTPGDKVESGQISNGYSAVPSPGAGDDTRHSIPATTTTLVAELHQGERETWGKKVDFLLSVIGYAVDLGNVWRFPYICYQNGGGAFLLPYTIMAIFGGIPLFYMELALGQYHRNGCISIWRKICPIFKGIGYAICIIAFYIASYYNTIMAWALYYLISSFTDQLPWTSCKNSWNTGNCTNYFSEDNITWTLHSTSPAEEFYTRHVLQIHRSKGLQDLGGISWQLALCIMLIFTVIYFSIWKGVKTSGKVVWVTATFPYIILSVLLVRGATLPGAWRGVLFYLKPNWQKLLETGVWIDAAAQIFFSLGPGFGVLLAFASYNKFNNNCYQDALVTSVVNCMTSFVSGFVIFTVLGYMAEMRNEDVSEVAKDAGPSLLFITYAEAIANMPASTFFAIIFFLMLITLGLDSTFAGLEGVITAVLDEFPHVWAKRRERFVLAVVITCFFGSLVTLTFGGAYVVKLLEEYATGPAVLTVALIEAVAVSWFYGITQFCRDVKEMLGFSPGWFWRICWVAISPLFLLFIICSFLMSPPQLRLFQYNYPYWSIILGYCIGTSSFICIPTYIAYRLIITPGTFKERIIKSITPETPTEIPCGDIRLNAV
Experimental endpoint: Ki (nM)

Below, each entry is followed by its recorded Ki result.
Molecule	Ki (nM)
COc1cc(Cl)ccc1Oc1cc(Cl)ccc1OC[C@H]1CCCNC1	21
COc1cc(F)ccc1Oc1nc(C)ccc1OC[C@H]1CCCNC1	300

[P] Cc1ccc(OC[C@H]2CCCNC2)c(Oc2ccc(Cl)c(Cl)c2)n1
[Q] Cl.c1ccc(Oc2ccccc2OC[C@H]2CCCNC2)cc1 [Example 43, hydrochloride]
Query: Thinking about recorded Ki values, which is higher, P or Q ? API: response body contains the label of the selected item.
Result: Q
(Q: 2300 nM, P: 63 nM)

====

So I've got pKi readings for human serotonin transporter (Homo sapiens), take a look.
pKi: −log10 of the molar value. Structures can show the parent of a compound that is named as a salt.
Experimental endpoint: pKi

Solved entries:
Compound	pKi
COc1cccc(F)c1OC[C@H]1CCCNC1	5.92
Cc1ccc(OC[C@H]2CCCNC2)c(Oc2c(F)ccc(Cl)c2F)n1 [Example 50, hydrochloride]	7.22
C[C@H](Oc1ccccc1OCC1CCC1)[C@H]1CCCNC1	6.38
Clc1cccc(Oc2ncccc2OC[C@H]2CCCNC2)c1.O=C(O)/C=C/C(=O)O	5.20
Fc1ccc(Oc2ncccc2OC(c2ccccc2)C2CCCNC2)cc1 (single isomer, unassigned; stereoisomer a)	6.82

[P] Fc1ccc(Oc2ncccc2OC[C@@H]2CCCNC2)cc1F.O=C(O)/C=C/C(=O)O
[Q] Cc1ccc(OC[C@H]2CCCNC2)c(Oc2c(F)ccc(F)c2F)n1 [Example 49, hydrochloride]
Query: // which entry has the larger pKi value, P or Q ? Let me know the label of the one you choose.
Result: Q

====

Reported melting point values for a set of compounds

Solved entries:
Compound structure	Assay result
Fc1ccc(Oc2ncccc2OC[C@H]2CCCNC2)cc1F.O=C(O)/C=C/C(=O)O	148 to 150 °C
O=C(O)/C=C/C(=O)O.c1ccc(Oc2ncccc2OC[C@@H]2CCCNC2)cc1	141 to 143 °C (dec.)
O=C(O)/C=C/C(=O)O.c1ccc(COc2ncccc2OC[C@H]2CCCNC2)cc1	165 to 167 °C (dec.)

// switching to the query compound
Query: Read off the recorded melting point for `Cc1ccc(Cl)c(Oc2ncccc2OC[C@H]2CCCNC2)c1.O=C(O)/C=C/C(=O)O`
Result: 183 to 184 °C (dec.)

====

Target: human serotonin transporter (Homo sapiens, UniProt P31645)
pKi: −log10 of the molar value. Where a name gives a salt, the structure may show the parent alone.
Experimental endpoint: pKi

Compound	Assay system	Experimental endpoint	Assay result
CC(C)COc1ncccc1OC(c1ccccc1)[C@H]1CCCNC1 (single isomer, unassigned; stereoisomer a) [Example 92]	human serotonin transporter (Homo sapiens, UniProt P31645)	pKi	6.85
Cl.c1ccc(COc2ccccc2OC[C@H]2CCCNC2)cc1 [Example 99, hydrochloride]	human serotonin transporter (Homo sapiens, UniProt P31645)	pKi	5.32

[A] Cc1ccc(OC[C@H]2CCCNC2)c(Oc2ccccc2Cl)n1 [Example 7]
[B] Cc1ccc(OC[C@H]2CCCNC2)c(Oc2ccc(Cl)cc2Cl)n1 [Example 22]
[C] COc1ccc(Oc2nc(C)ccc2OC[C@H]2CCCNC2)c(Cl)c1 [Example 26]
[D] Cc1ccc(OC[C@H]2CCCNC2)c(Oc2c(F)cc(Cl)cc2F)n1 [Example 45, hydrochloride]
Query: // ranking: key=pKi, reverse=True I would appreciate it if you listed the labels in the requested order.
Result: D, B, A, C

====

Structures can show the parent of a compound that is named as a salt.
Target or system human norepinephrine transporter (Homo sapiens, UniProt P23975); recorded quantity Ki.
Experimental endpoint: Ki (nM)

Compound	Assay result
Cc1ccc(OC[C@H]2CCCNC2)c(Oc2cc(C)c(Cl)cc2C(C)C)n1 [Example 16]	2600
Cc1cc(Oc2ncccc2OC[C@H]2CCCNC2)ccc1F.O=C(O)/C=C/C(=O)O [Example 67]	6
Cc1ccc(OC[C@H]2CCCNC2)c(Oc2ccc(Cl)cc2Cl)n1 [Example 22]	4.7
Cc1ccc(OC[C@H]2CCCNC2)c(Oc2c(Cl)cc(F)cc2Cl)n1 [Example 48, hydrochloride]	61
COc1cccc(F)c1Oc1nc(C)ccc1OC[C@H]1CCCNC1 [Example 21]	4.9
CC(C)COc1ncccc1OC(c1ccccc1)[C@H]1CCCNC1 (single isomer, unassigned; stereoisomer a) [Example 92]	29

[A] COc1ccc(F)cc1O[C@@H](c1ccccn1)[C@H]1CCCNC1 [Example 117]
[B] Cc1ccc(OC[C@H]2CCCNC2)c(Oc2ccccc2C)n1 [Example 5]
Query: Could you tell me which of these two has the smaller Ki figure? First: A Second: B When you have decided, please share the label of that item.
Result: B

[I] Fc1ccc(Oc2ncccc2OC[C@@H]2CCCNC2)cc1F.O=C(O)/C=C/C(=O)O [Example 63]
[II] Clc1ccc(Oc2ncccc2OC[C@H]2CCCNC2)cc1 [Example 55]
[III] CC(C)COc1cccc(F)c1OC[C@H]1CCCNC1 [Example 104]
Query: Put the entries in order of Ki, starting with the largest number. Please reply with the labels ordered as requested. Many thanks.
Result: I, III, II

[I] Cc1ccc(OC[C@H]2CCCNC2)c(Oc2ccc(F)cc2F)n1 [Example 25]
[II] Cc1ccc(OC[C@H]2CCCNC2)c(Oc2ccccc2OC(C)C)n1 [Example 10]
[III] Cc1ccc(OC[C@H]2CCCNC2)c(Oc2ccc(F)cc2C)n1 [Example 1]
Query: Put the compounds in ascending order of Ki. Answer with the labels in sequence, matching the requested order.
Result: I, II, III

====

Target: human serotonin transporter (Homo sapiens)
Assay: Human serotonin (hSERT) receptor binding, [125I]-RTI-55
Conditions: membranes of HEK-293 cells transfected with human serotonin transporter cDNA, IC50 converted by Cheng-Prusoff
pKi: −log10 of the molar value.
Experimental endpoint: pKi

Some solved cases for reference:
Compound	Assay result
Cl.c1ccc(OC2CCCCC2)c(OC[C@H]2CCCNC2)c1 [Example 101, hydrochloride]	< 5.01
COc1cc(C#N)ccc1Oc1ncccc1OC[C@H]1CCCNC1	< 5.00

Kindly consider the entry below.
Query: Tell me its pKi given `CCOc1ncccc1OC[C@H]1CCCNC1` as the entry.
Result: < 5.00

====

Observed Ki for human norepinephrine transporter (Homo sapiens), reported per entry below.
Experimental endpoint: Ki (nM)

// below: answered compounds
Compound	Assay system	Value units	Ki
COc1cc(F)ccc1Oc1cc(C(F)(F)F)ccc1OC[C@H]1CCCNC1	human norepinephrine transporter (Homo sapiens)	nM	77
Fc1ccc(Oc2cc(F)ccc2OC[C@H]2CCCNC2)c(Cl)c1	human norepinephrine transporter (Homo sapiens)	nM	802
Fc1ccc(Oc2ncccc2OC[C@H]2CCCNC2)cc1Cl.O=C(O)/C=C/C(=O)O	human norepinephrine transporter (Homo sapiens)	nM	20
CCOc1ccccc1OC[C@H]1CCCNC1	human norepinephrine transporter (Homo sapiens)	nM	33
Cc1ccc(OC[C@H]2CCCNC2)c(Oc2ccc(F)cc2)n1	human norepinephrine transporter (Homo sapiens)	nM	3.8
C[C@H](Oc1ccccc1OC1CCCCC1)[C@H]1CCCNC1	human norepinephrine transporter (Homo sapiens)	nM	5

[a] Cc1ccc(OC[C@H]2CCCNC2)c(Oc2ccc3c(c2)CCC3)n1
[b] CCc1ccc(Oc2nc(C)ccc2OC[C@H]2CCCNC2)c(OC)c1
Query: Which value of Ki is smaller, the one for a or the one for b ? State your choice using its label.
Result: b
(b: 18 nM, a: 54 nM)

====

Let's go through some Ki measurements on human norepinephrine transporter (Homo sapiens, UniProt P23975) together.
Where a name gives a salt, the structure may show the parent alone.
Experimental endpoint: Ki (nM)

[I] CC(C)c1ccccc1Oc1ncccc1OC[C@H]1CCCNC1.O=C(O)/C=C/C(=O)O
[II] COc1ccc(Oc2nc(C)ccc2OC[C@H]2CCCNC2)c(Cl)c1
[III] Cc1ccc(OC[C@H]2CCCNC2)c(Oc2c(F)cccc2F)n1 [Example 42, hydrochloride]
Query: Rank entries according to their Ki, from the largest number down. Provide the ranking by listing each label in its place in the requested order.
Result: I, II, III
(I: 760 nM, II: 18 nM, III: 3.6 nM)
